Origin of measurements: PubChem BioAssay (NCATS)

Entries and their max response
- Test system: HEK293
- ASSAY TEXT: Cytotoxic Profiling of Annotated Libraries Using Quantitative High-Throughput Screening (AID 1296008); further: on the % scale 0 is the no-effect control and ±100 the full control effect; nearly all actives have a fitted effect of over 60% in size
- ASSAY CONTEXT: Five cell lines viability, CellTiter-Glo ATP luminescence, 48-72 h; hits give low values
- Method: Cell-based phenotypic screening is a commonly used approach to discover biological pathways, novel drug targets, chemical probes and high-quality hit-to-lead molecules. […] A pintool (Kalypsys) was used to transfer 23 nL of compound solution to the 1536-well assay plates. […] Plates were left at room temperature for 10 min before imaging the ATP-coupled luminescence using a ViewLux microplate imager (PerkinElmer, Waltham, MA).
Results filed as inconclusive are left out.
Note: unit % is implicit; provide only the numeric part.

COC(=O)C1=COC(OC2OC(CO)C(O)C(O)C2O)C2C(COC(=O)/C=C/c3ccc(O)c(O)c3)C(O)C(O)C12 (centres undefined)	0.488
COc1ccc(NC(=O)c2ccc(-c3ccc(C(N)=O)cc3C)cc2)cc1N1CCN(C)CC1	-78.4
C=C1CC[C@H]2[C@@](C)(CCC(O)[C@@]2(C)CO)[C@@H]1/C=C/C(=C\C(=O)O)C(=O)O (some centres undefined)	-0.745

Prompt line: Using the record for `COc1cccc2c1c(O)c(C(=O)N(C)c1ccc(C(F)(F)F)cc1)c(=O)n2C` , report its max response.
Response line: 3.79

* * *

- System: KB-3-1
- ASSAY TEXT: Cytotoxic Profiling of Annotated Libraries Using Quantitative High-Throughput Screening (AID 1296008); further: on the % scale 0 is the no-effect control and ±100 the full control effect; nearly all actives have a fitted effect of over 60% in size
- ASSAY CONTEXT: Five cell lines viability, CellTiter-Glo ATP luminescence, 48-72 h; hits give low values
Records with an inconclusive call do not appear.
Each item that follows carries a reported max response.
Respond with the bare value in %.

COc1cc2c(cc1OC)N1C(=O)C[C@@]34C=CC[N@+]5([O-])CC[C@H]2[C@H](CC3)[C@@]145	1.95
CC1(C(=O)O)CCCC2(C)C3CCC4CC3(CCC12)CC4(O)CO (configuration not stated)	5.7
COc1ccc(C(=O)NCc2cc(C(C)C)no2)cc1OC1CCN(C)CC1	-1.9
COc1cc(C(C)=O)ccc1O[C@@H]1O[C@H](CO[C@@H]2OC[C@@H](O)[C@H](O)[C@H]2O)[C@@H](O)[C@H](O)[C@H]1O	7.17

Prompt line: Looking for the measured max response of `CC1(C)CC=C(C#Cc2ccccc2)c2cc(/C=C/c3ccc(C(=O)O)cc3)ccc21` , can you help?
Response line: 3.78

Prompt line: Could you do the same for `O=C(O)c1cccc(CN2C(=O)/C(=C(\c3ccccc3)c3ccc(Cl)cc3)c3ccccc32)c1` , please?
Response line: 5.03

Prompt line: Same for CC(=O)OC(C)(C)/C=C/C(=O)[C@](C)(O)C1[C@H](O)C[C@@]2(C)[C@@H]3CC=C4[C@@H](C[C@H](O[C@@H]5O[C@H](CO)[C@@H](O)[C@H](O)[C@H]5O)C(=O)C4(C)C)[C@]3(C)C(=O)C[C@]12C (some centres not stated)
Response line: 1.94

* * *

- ASSAY TEXT: Confirmatory screen NINDS Rhodamine qHTS for Zika virus inhibitors (AID 1347161); further: nearly all actives have a fitted effect of over 60% in size; further: potency means the concentration at half of the fitted maximal effect
- ASSAY CONTEXT: purified enzyme assay, Rhodamine110 substrate fluorescence, 15 min; series mostly up to 114 µM
Inconclusive results are not listed. Calls of active or inactive are those of the source. Calls come from the whole dose curve; as a rule, active = well fitted inhibition curve with a large enough effect; inconclusive = small, poorly fitted or top-dose-only effect; inactive = no such curve, though single readings can be large or run the other way. *1 amine or outer side, *2 acyl side, *3 side chain or, on linkers, in order; H or OH if unused. Where a SMILES comes first, the peptide text is derived from it. Bridges are numbered along the chain shown (N, C = ends). [ ]: non-standard residue; d: D form. The star is where a group is joined. ξ: configuration not given here. ξhTyr(3S-OH,4S-OH,3'-OSO3H) = NC(C(=O)O)[C@H](O)[C@@H](O)c1ccc(O)c(OS(=O)(=O)O)c1; Orn(4R-OH,5R-OH) = O=C([C@H](C[C@@H](O)[C@@H](O)N[*:3])N[*:1])[*:2]; X2 = CCCCCOc1ccc(-c2cc(-c3ccc(C(=O)*)cc3)no2)cc1; X3 = C[C@H]1CN([*:1])C(C(=O)[*:2])[C@H]1O; ξGln(3R-OH) = NC(=O)C[C@@H](O)C(N)C(=O)O; ξPro(4R-OH) = O=C(O)C1C[C@@H](O)CN1; ξThr(3R) = C[C@@H](O)C(N)C(=O)O
MEASURED PROPERTY: Potency

The following compounds have reported results that may help.
Cn1cc(-c2c[nH]c3ncnc(N4CCOCC4)c23)cn1	inactive
CC1C(O)C(O)C2C(C(=O)OCCc3ccc(O)cc3)=COC(O[C@@H]3O[C@H](CO)[C@@H](O)[C@H](O)[C@H]3O)C12 (stereo not given in full)	15.2 µM (active)
O=C(O)C1(c2ccc(-c3ccc(Cl)c(Cl)c3)c(F)c2)CC1	6.98 µM (active)
C=C1CCC2C(C)(C)CCC[C@]2(C)[C@H]1CC/C(C)=C/C(=O)O (stereo not given in full)	4.94 µM (active)
Cc1ccccc1-n1nc(-c2c(-c3ccc(F)cc3)nn3c2NC[C@@H](CO)C3)ccc1=O	inactive
CCOc1ccc(-c2cc(NC(=O)c3c(F)cccc3F)c(C(=O)O)s2)cc1	3.12 µM (active)
C/C=C/C=C/C=C/C(=O)O[C@@H]1[C@@H](OC)C2=C(C(=O)N(C(CCC(=O)O)C(=O)O)C2)[C@@]2(C)CCCC(C)(C)[C@H]12 (stereo not given in full)	2.71 µM (active)
CCCCCOc1ccc(-c2cc(-c3ccc(C(=O)N[C@H]4C[C@@H](O)[C@@H](O)NC(=O)C5[C@@H](O)[C@@H](C)CN5C(=O)C([C@H](O)CC(N)=O)NC(=O)C([C@H](O)[C@@H](O)c5ccc(O)c(OS(=O)(=O)O)c5)NC(=O)C5C[C@@H](O)CN5C(=O)C([C@@H](C)O)NC4=O)cc3)no2)cc1 (stereo partly drawn) (X2-[Orn(4R-OH,5R-OH)][ξThr(3R)][ξPro(4R-OH)][ξhTyr(3S-OH,4S-OH,3'-OSO3H)][ξGln(3R-OH)][X3]; lactam 1-C)	4.29 µM (active)

Prompt line: Sample `C/C(=C\CC/C(C)=C/CC[C@]1(C)CCc2cc(O)cc(C)c2O1)CC/C=C(\C)C(=O)O` — what was its Potency?
Response line: 1.92 µM (active)

Prompt line: And what about the compound CC(C)CC(c1c(O)c(C=O)c(O)c(C=O)c1O)C1CCC(C)(O)C2CC(C(C)(C)O)CCC12C (stereo not given) ?
Response line: 3.41 µM (active)

Prompt line: And then `O=C(O)CC/C=C\C[C@H]1CO[C@@H](c2ccccc2Cl)O[C@H]1c1ccccc1O` , what is it?
Response line: 44.1 µM (active)

Prompt line: Try this compound too: Cc1ccc2[nH]c(=O)c(C3=NN(C(=O)CCC(=O)O)C(c4ccc(Br)cc4)C3)c(-c3ccccc3)c2c1 (stereo not given)
Response line: 3.93 µM (active)

Prompt line: Item: `COc1cc(/C=C/c2ccccc2)c(C(=O)O)c(O)c1CC=C(C)C`
Response line: 4.85 µM (active)

Prompt line: Same question, CC1(C)CC[C@]2(C(=O)O)CC[C@]3(C)C(=CCC4[C@@]5(C)CC[C@H](O[C@@H]6O[C@H](C(=O)O)[C@@H](O)[C@H](O)[C@H]6O)C(C)(C)C5CC[C@]43C)C2C1 (stereo not given in full) this time
Response line: 6.55 µM (active)

Prompt line: Request: CC(=O)OC12CC(C)C(OC(=O)c3ccccc3)C1/C=C(/C)C(OC(=O)c1ccccc1)CC(=O)C(C)(C)/C=C/C(C)C2=O (stereo not given)
Response line: 3.68 µM (active)
